Target: Ubiquitin-activating enzyme e1, putative (Leishmania donovani (strain BPK282A1)) (UniProt E9BSI1)
Sequence (E9BSI1 as listed by the source): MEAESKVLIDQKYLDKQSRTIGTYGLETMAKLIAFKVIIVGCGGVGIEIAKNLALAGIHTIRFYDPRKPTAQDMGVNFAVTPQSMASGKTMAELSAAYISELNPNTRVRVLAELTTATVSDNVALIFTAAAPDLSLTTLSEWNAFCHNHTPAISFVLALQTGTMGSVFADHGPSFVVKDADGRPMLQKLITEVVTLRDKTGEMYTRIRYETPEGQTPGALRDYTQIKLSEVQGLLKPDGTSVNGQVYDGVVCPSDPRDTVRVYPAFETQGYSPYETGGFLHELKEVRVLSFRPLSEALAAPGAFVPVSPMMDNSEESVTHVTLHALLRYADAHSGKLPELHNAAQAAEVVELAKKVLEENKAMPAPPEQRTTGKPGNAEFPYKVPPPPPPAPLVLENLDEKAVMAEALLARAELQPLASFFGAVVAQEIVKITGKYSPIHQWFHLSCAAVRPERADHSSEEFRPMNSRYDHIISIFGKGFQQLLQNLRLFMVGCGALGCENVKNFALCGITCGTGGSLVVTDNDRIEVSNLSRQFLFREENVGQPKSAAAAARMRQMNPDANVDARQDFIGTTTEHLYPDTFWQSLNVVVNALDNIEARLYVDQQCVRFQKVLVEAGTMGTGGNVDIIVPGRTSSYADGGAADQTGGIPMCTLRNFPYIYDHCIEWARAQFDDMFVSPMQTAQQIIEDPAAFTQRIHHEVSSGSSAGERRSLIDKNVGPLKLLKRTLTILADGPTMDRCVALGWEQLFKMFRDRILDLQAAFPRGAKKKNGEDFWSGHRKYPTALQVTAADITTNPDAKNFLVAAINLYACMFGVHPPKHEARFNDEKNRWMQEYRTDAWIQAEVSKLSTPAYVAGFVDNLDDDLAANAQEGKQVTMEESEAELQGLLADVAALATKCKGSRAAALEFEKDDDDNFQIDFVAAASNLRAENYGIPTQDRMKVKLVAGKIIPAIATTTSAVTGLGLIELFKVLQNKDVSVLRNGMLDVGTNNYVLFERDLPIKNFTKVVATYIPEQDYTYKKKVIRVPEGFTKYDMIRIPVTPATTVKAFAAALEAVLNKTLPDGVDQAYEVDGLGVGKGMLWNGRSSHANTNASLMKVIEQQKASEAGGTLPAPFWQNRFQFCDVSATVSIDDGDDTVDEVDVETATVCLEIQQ
Assay: Leishmania donovani Ubiquitin Activating Enzyme (LdE1)
Format: functional
Parameters: scale not given: direction of the effect not stated beside the values
Settings: 30 µM
Entries with a potency or affinity are not part of this list.
Field: label. Allowed values: Satisfied (Percent Effect < 20%) or Not satisfied (Percent Effect >= 20%).

compound: Cc1n[nH]c(=O)c2c(NC(=O)CN3CCCC(C(F)(F)F)C3)oc(C)c12 (stereo unspecified)
label: Not satisfied

compound: Cc1ccc(NC2CCN(C(=O)Cc3csc(C)n3)CC2)nn1
label: Not satisfied

compound: CCn1nc(C(=O)N2CCCC(n3cncn3)C2)ccc1=O (stereo unspecified)
label: Satisfied

compound: CCn1nccc1CNC(=O)C1CCCC1
label: Satisfied

compound: CCc1ccc(C(=O)N2CCC(c3nncn3CC)CC2)cc1
label: Satisfied

compound: COc1cccc(S(=O)(=O)CCN2CCCCC2)c1
label: Satisfied

---

Target: Chromo domain-containing protein 1 (Saccharomyces cerevisiae (strain ATCC 204508 / S288c) (Baker's yeast)) (UniProt P32657)
Sequence (P32657 whole entry, the tested form may be a part): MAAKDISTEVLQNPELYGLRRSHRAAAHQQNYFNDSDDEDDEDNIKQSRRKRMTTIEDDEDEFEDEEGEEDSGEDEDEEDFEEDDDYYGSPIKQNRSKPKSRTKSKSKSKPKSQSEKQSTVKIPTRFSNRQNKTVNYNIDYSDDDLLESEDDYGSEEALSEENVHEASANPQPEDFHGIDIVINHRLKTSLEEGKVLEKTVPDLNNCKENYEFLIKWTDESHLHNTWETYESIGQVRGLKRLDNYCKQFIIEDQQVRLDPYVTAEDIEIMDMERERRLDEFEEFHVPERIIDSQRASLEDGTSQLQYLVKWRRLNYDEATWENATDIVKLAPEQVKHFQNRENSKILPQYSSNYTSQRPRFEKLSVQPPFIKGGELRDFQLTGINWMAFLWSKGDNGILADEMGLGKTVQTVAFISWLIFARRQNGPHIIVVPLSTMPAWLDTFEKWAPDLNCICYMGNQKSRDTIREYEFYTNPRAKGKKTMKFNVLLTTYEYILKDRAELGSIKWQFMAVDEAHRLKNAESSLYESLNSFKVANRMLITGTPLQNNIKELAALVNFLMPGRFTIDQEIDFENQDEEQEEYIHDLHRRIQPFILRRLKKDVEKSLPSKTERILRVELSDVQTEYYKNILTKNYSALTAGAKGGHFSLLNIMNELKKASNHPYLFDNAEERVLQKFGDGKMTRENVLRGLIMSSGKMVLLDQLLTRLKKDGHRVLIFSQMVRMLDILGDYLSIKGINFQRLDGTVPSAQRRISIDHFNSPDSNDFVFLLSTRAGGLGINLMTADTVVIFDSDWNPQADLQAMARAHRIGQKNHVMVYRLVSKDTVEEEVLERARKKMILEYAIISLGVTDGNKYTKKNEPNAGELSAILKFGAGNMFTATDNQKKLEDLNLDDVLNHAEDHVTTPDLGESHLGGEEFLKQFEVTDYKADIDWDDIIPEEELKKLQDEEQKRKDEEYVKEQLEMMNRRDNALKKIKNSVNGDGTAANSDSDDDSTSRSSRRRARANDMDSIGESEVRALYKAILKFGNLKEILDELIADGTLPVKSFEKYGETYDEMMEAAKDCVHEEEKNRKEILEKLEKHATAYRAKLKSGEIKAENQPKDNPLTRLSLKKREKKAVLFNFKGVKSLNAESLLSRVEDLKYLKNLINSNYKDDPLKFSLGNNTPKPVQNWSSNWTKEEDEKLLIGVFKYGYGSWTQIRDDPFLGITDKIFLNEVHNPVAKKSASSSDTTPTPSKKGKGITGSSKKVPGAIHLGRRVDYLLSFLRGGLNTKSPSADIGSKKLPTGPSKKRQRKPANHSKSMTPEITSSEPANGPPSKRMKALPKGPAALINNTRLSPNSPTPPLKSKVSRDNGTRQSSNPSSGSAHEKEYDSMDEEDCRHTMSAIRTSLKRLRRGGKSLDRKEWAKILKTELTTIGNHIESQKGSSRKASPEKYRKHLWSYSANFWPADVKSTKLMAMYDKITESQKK
Test: ScCHD-1 Enzyme Inhibition Assay; note: in the data most compounds retested in dose-response had high values
Assay type: functional
Design: scale not given: direction of the effect not stated beside the values
Settings: 30 µM

compound: O=C(CCc1ccccn1)N1CCN(C(=O)CC2CCCCC2)CC1
units label: %
Percent Effect: -18.5

compound: O=C(Nc1cc(F)ccc1OCC1CCCO1)c1ccccn1 (stereo unspecified)
units label: %
Percent Effect: -15.1

compound: CC1COCCN1Cc1nc(-c2cccc(Br)c2)no1 (stereo unspecified)
units label: %
Percent Effect: -8.7

compound: CCn1ccnc1CN1CCCN(C(=O)c2sccc2C#N)CC1
units label: %
Percent Effect: 0.721

compound: O=C(CCc1cc2n(n1)CCN(Cc1ncc[nH]1)C2)N1CCCC1
units label: %
Percent Effect: -1.96

compound: CCN1C(=O)CCCC12CCCN(C(=O)c1conc1C)C2 (stereo unspecified)
units label: %
Percent Effect: -2.52

---

Below, each entry is listed with its recorded Percent Effect.
Target: Chromo domain-containing protein 1 (Saccharomyces cerevisiae (strain ATCC 204508 / S288c) (Baker's yeast)) (UniProt P32657)
Test: ScCHD-1 Enzyme Inhibition Assay; note: in the data most compounds retested in dose-response had high values
Assay type: functional
Parameters: scale not given: direction of the effect not stated beside the values
Conditions: 30 µM
outcome measure: Percent Effect (%)

compound: CCc1nc(CN(C(C)=O)C2CCN(Cc3cnc(C)cn3)C2)no1 (configuration not stated)
measured: -6.99
//
compound: Cc1nc(C)n(CC2CCCN(CCC(=O)N3CCCCC3)C2)n1 (configuration not stated)
measured: 4.58
//
compound: CCN(C)c1ncnc2c1CCN(Cc1ccc(OC)cc1)CC2
measured: -4.67
//
compound: Fc1ccc(CN2CCCC2Cn2cccn2)c2ncccc12 (configuration not stated)
measured: 7.89
//
compound: NCC1Cn2nnc(-c3cccc(F)c3)c2CO1 (configuration not stated)
measured: -4.31
//
compound: Cc1ccc(CNC(=O)CN2CCCC(Cn3cncn3)C2)s1 (configuration not stated)
measured: -11.2
//
compound: CC(O)CN1CCN(C(=O)CN(C)c2ccc(Cl)cn2)CC1 (configuration not stated)
measured: -3.67
//
compound: Cc1cncc(C2CCCN(C(=O)c3ccc(C)[nH]c3=O)C2)n1 (configuration not stated)
measured: -23.9
//
compound: CCn1ccnc1CN1CCN(CCOc2cccc(C#N)c2)CC1
measured: -13
//
compound: CCN(CC)C(CNC(=O)c1ccc(S(C)(=O)=O)cc1)c1ccco1 (configuration not stated)
measured: 3.77
//
compound: CC(C)c1noc(CCCC(=O)NC2CCS(=O)(=O)C2)n1 (configuration not stated)
measured: -11
//
compound: CCN(C(=O)Nc1cccnc1OC)C1CC1
measured: -9.65
